Biological target: HCV-NS5b (Hepatitis C virus genotype 1b, UniProt Q9WMX2)
Construct: (His)6 (C); made in house; host or cells: XL-1 cells (E. coli), IPTG-inducible plasmid, nickel-NTA purification
Experiment: HCV-NS5b enzyme assay (incorporation of radiolabeled UTP)
Type: biochemical
Conditions: read-out: % inh@100, enzyme inhibition at compound concentration of 100 uM
Catalogue of inhibition at 100 µM values

{"Compound": "O=C(O)c1ccc2cc(NC(=O)c3ccc4c(c3)nc(-c3ccc5nc(-c6ccccc6)cnc5c3)n4C3CCCCC3)ccc2c1", "inhibition at 100 µM, %": 99}
{"Compound": "O=C(O)c1ccc2c(c1)nc(-c1ccc3ccc(-c4ccccc4)nc3c1)n2C1CCCCC1", "inhibition at 100 µM, %": 98.9}
{"Compound": "COc1ccc(-c2cc(Cl)cc(Cl)c2)c(-c2ccc3cc(-c4nc5cc(C(=O)O)ccc5n4C4CCCCC4)ccc3n2)c1", "inhibition at 100 µM, %": 101}
{"Compound": "COc1ccc(-c2ccc(Cl)cc2)c(-c2ccc3cc(-c4nc5cc(C(=O)O)ccc5n4C4CCCCC4)ccc3n2)c1", "inhibition at 100 µM, %": 100}
{"Compound": "O=C(N[C@@H](CC1CCCCC1)C(=O)O)c1ccc2c(c1)nc(-c1ccc3nc(-c4ccccc4)cnc3c1)n2C1CCCCC1", "inhibition at 100 µM, %": 97}
{"Compound": "COc1ccc(-c2ccc(F)c(Cl)c2)c(-c2ccc3cc(-c4nc5cc(C(=O)O)ccc5n4C4CCCCC4)ccc3n2)c1", "inhibition at 100 µM, %": 99.4}
{"Compound": "O=C(O)c1ccc2c(c1)nc(-c1ccc3nc(-c4ccccc4)cc(Nc4ccc(Cl)cc4)c3c1)n2C1CCCCC1", "inhibition at 100 µM, %": 101}
{"Compound": "O=C(O)c1ccc2c(c1)nc(-c1ccc3ncc(-c4ccccc4)nc3c1)n2C1CCCCC1", "inhibition at 100 µM, %": 99}
{"Compound": "COc1ccc(-c2ccc(Cl)cc2)c(-c2ccc3cc(-c4nc5cc(C(=O)O)ccc5n4Cc4ccccc4)ccc3n2)c1", "inhibition at 100 µM, %": 101}
{"Compound": "NC(=O)c1cc(-c2ccc3cc(-c4nc5cc(C(=O)O)ccc5n4C4CCCCC4)ccc3n2)ccc1O", "inhibition at 100 µM, %": 98.3}
{"Compound": "O=C(c1ccc(-c2ccc(Cl)cc2)c(-c2ccc3cc(-c4nc5cc(-c6nnn[nH]6)ccc5n4C4CCCCC4)ccc3n2)c1)N1CCCC1", "inhibition at 100 µM, %": 99.4}
{"Compound": "O=C(O)c1ccc2c(c1)nc(-c1ccc3nc(-c4ccc(N5CCOCC5)cc4)ccc3c1)n2C1CCCCC1", "inhibition at 100 µM, %": 101}
{"Compound": "COc1ccc(-c2cnc(OC)nc2OC)c(-c2ccc3cc(-c4nc5cc(C(=O)O)ccc5n4C4CCCCC4)ccc3n2)c1", "inhibition at 100 µM, %": 98.3}
{"Compound": "O=C(N[C@@H](CO)C(=O)O)c1ccc2c(c1)nc(-c1ccc3nc(-c4ccccc4)ccc3c1)n2C1CCCCC1", "inhibition at 100 µM, %": 97.5}
{"Compound": "COc1ccc(-c2ccc(Cl)cc2)c(-c2ccc3cc(-c4nc5cc(C(=O)O)ccc5n4C4CC(C)CC(C)(C)C4)ccc3n2)c1 (stereo not drawn)", "inhibition at 100 µM, %": 101}

Where do the numbers come from? From patent US7511145B2.
